Values from PubChem BioAssay (NCI)

# Tested on: SN12K1 renal
# Test name: NCI tumour cell line growth inhibition, 48 h
Property: TGI (µM)
# value in µM; strip the unit string

Provide one value: measured TGI of CNC(=O)OCc1nc(SSC(C)(C)C)n(C)c1COC(=O)NC 14.9

Could you now consider this next compound?
Provide one value: measured TGI of CN(C)CCNC(=O)c1cccc2c(=O)c3ccccc3oc12 47.5

---

# System: M14 melanoma
# Test name: NCI tumour cell line growth inhibition, 48 h
Listed below: TGI values for each entry.

Recorded TGI, per entry:
Provide one value: measured TGI of Cc1ccc(-n2[nH]nc(C(N)=O)c2=O)cc1 > 100 µM

Provide one value: measured TGI of O=C1NC(=S)N/C1=C\c1cccs1 > 100 µM

Provide one value: measured TGI of CC(C)(C)C1=C(Br)C(C(C)(C)C)OP1(=O)O (configuration not stated) > 100 µM

Provide one value: measured TGI of CN(C)CCC(=O)N1C/C(=C\c2ccc(Cl)c(Cl)c2)C(=O)/C(=C/c2ccc(Cl)c(Cl)c2)C1 0.979 µM

Provide one value: measured TGI of CCOC(=O)C(NC(=O)Nc1ccc(C)cc1)(OCC)C(F)(F)F (configuration not stated) > 100 µM

Continuing:
Provide one value: measured TGI of O=C(O)c1c2c(cc3c1CC(Cc1ccccc1)C3=O)CCC2 (configuration not stated) > 100 µM
